FYI, the data here is from ChEMBL document CHEMBL1145020.

# Tested on: SW-620
# PROTOCOL DETAILS: Concentration required to inhibit growth of human carcinoma colon (SW620) cell line
# Format: functional, cell-based
ENDPOINT: IC50 (µM)

Answered cases to consult:
> print(dat)
                                   compound  measured
1  CN(C)C/C=C/C(=O)Nc1cc2c(Nc3ccc(F)c(Cl)c3)c(C#N)cnc2cc1OC(F)(F)F      1.46
2  CCOc1cc2ncc(C#N)c(Nc3cccc(Br)c3)c2cc1NC(=O)/C=C/CN(C)C      1.15

(a) COc1cc2ncc(C#N)c(Nc3ccc(F)c(Cl)c3)c2cc1NC(=O)/C=C/C(C)N(C)C (stereo unspecified)
(b) CCN(CC)C/C=C/C(=O)Nc1cc2c(Nc3ccc(F)c(Cl)c3)c(C#N)cnc2cc1OC
(c) COC[C@@H]1CCCN1CC#CC(=O)Nc1ccc2ncc(C#N)c(Nc3cccc(Br)c3)c2c1
(d) COCC#CC(=O)Nc1cc2c(Nc3cccc(Br)c3)c(C#N)cnc2cc1OC
Sort low-to-high on IC50, please. // respond by listing labels in the order requested
b, a, d, c
